Can you tell me melting point for the items I'm about to list?
Please give a number only; it is taken to be in °C.

Inquiry: Give a short answer stating reported melting point for CC(=O)Nc1ccc(O)cc1 [acetaminophen] .
Reply text: 170

Inquiry: Check the records and state melting point for N#CC(=Cc1ccc(Cl)cc1)C(N)=O [3-(4-chlorophenyl)-2-cyanoacrylamide]
Reply text: 101

Inquiry: Write down melting point measured for item Cc1ccccc1CO [2-methylbenzyl alcohol]
Reply text: 35

Inquiry: Given the molecule CC(C)(C)NCC(O)COc1cccc2c1CC(O)C(O)C2 (configuration not stated) , write its reported melting point.
Reply text: 124

Inquiry: Given O=C(Cl)C(=O)Cl [Ethanedioyl dichloride] , respond with its melting point.
Reply text: -9

Inquiry: Query melting point for Nc1c(Cl)cccc1Cl
Reply text: 40

Inquiry: State its melting point for this molecule: O[C@H]1CCCC[C@@H]1O (relative stereo) [trans-1,2-cyclohexanediol]
Reply text: 104

Inquiry: Determine its reported melting point: Cc1ccc(C)c(C(=O)O)c1
Reply text: 134

Inquiry: Indicate the recorded melting point value for this molecule: CCCC(=O)c1cc2ccccc2oc1=O
Reply text: 94

Inquiry: Identify measured melting point corresponding to CC(C)C(C)(C)O
Reply text: -10

Inquiry: Report melting point, nothing else, for this molecule: CC(/C=C(\C)C#Cc1ccccc1)=N/Nc1ccc([N+](=O)[O-])cc1[N+](=O)[O-]
Reply text: 198

Inquiry: Consider the molecule C/C(C)=CCC and give its recorded melting point.
Reply text: -135

Inquiry: Look up and report measured melting point for this entry: CCOC(=O)c1ccc(O)cc1 [Ethyl 4-hydroxybenzoate]
Reply text: 116

Inquiry: State its melting point for this molecule: C(=C/P(=O)(O)O)P(=O)(O)O
Reply text: 219

Inquiry: Give melting point for the following molecule: CCCC(C)(COC(N)=O)COC(N)=O
Reply text: 104

Inquiry: Check the records and state melting point for Cc1ccc(/C=C(/C#N)c2nc(-c3ccccc3)cs2)cc1
Reply text: 79

Inquiry: In one line, give reported melting point of the entry CC(=O)OCC(=O)[C@@]1(O)CC[C@H]2[C@@H]3CCC4=CC(=O)CC[C@]4(C)[C@H]3C(=O)C[C@@]21C [cortisone acetate] .
Reply text: 222

Inquiry: Supply reported melting point belonging to this molecule: O=C(c1ccco1)C(O)c1ccco1 (configuration not stated)
Reply text: 138

Inquiry: Give the reported value of melting point for this record: CC(=O)OCCCCOC(C)=O
Reply text: 13

Inquiry: Return value of melting point for input ClCC(Cl)(Cl)Cl [1,1,1,2-tetrachloroethane] , no commentary.
Reply text: -70

Inquiry: Return melting point for the following molecule: CC(C)Cc1ccc(C(C)C(=O)O)cc1 (configuration not stated)
Reply text: 75

Inquiry: Output measured melting point for this item: NC(=O)c1cc(F)ccc1F [2,5-difluorobenzamide]
Reply text: 112

---

Result Type: melting point (°C)
Give the value in °C but do not write °C after it.

Inquiry: Indicate the recorded melting point value for this compound: C=CCCCCCCC
Reply text: -81

Inquiry: Hello, please tell me recorded melting point for this one: CCOC(=O)c1ccccc1C(=O)OCC [diethyl_phthalate]
Reply text: -3

Inquiry: Check the records and state melting point for CN(C)c1ccc([N+]([O-])=CC(=O)c2ccc(C(=O)C=[N+]([O-])c3ccc(N(C)C)cc3)cc2)cc1
Reply text: 133

Inquiry: Read the entry Oc1c(Cl)cccc1Cl and write its reported melting point.
Reply text: 68.5

Inquiry: Please report the measured melting point for C[C@H]1CCCC[C@@H]1O (relative stereo) [trans-2-methylcyclohexanol]
Reply text: -21

Inquiry: Report measured melting point; entry is O=S(=O)(O)Cl
Reply text: -80

---

Result Type: melting point (°C)
Quick reminder: number only, in °C, skip the unit.

Inquiry: State its melting point: Fc1ccc(Cl)cc1
Reply text: -22

Inquiry: Indicate its recorded melting point; the molecule in question is O=C(O)c1ccc(C(=O)c2ccccc2)cc1
Reply text: 199

Inquiry: Quickly give me recorded melting point for O=C1c2ccccc2CC1Br (configuration not stated)
Reply text: 38

Inquiry: Identify melting point associated with the molecule Cl/C(Cl)=C/C3C(C(=O)OC(C#N)c2cccc(Oc1ccccc1)c2)C3(C)C (configuration not stated)
Reply text: 68.5

Inquiry: Quick one: give measured melting point for FC(F)(F)C(F)(F)C(F)(F)C(F)(F)C(F)(F)C(F)(F)F
Reply text: -90

Inquiry: // Input: c1ccc(COCc2ccccc2)cc1 . Output its melting point only.
Reply text: 4

Inquiry: Give the value of melting point reported for the following: CCOc1ccc(Br)cc1
Reply text: 4

Inquiry: # return recorded melting point for input CCCCCCCCCCCCCCCCCO [1-heptadecanol]
Reply text: 58

Inquiry: Please report the measured melting point for [O-][I+2]([O-])O
Reply text: 110

Inquiry: Provide only the value of recorded melting point for O=C(O)c1cc(/N=N/c2ccc(S(=O)(=O)Nc3ccccn3)cc2)ccc1O
Reply text: 220

Inquiry: Let me know recorded melting point for [2H]C1([2H])OC([2H])([2H])C([2H])([2H])C1([2H])[2H] [(~2~H_8_)Tetrahydrofuran] , thanks.
Reply text: -106

Inquiry: In one line, give reported melting point of the entry O=C(O)/C=C/c1ccccc1 [trans-cinnamic_acid] .
Reply text: 133

Inquiry: Indicate its recorded melting point; the molecule in question is CC(C)NCC1CCc2cc(CO)c([N+](=O)[O-])cc2N1 (configuration not stated)
Reply text: 148

Inquiry: Quickly give me recorded melting point for COc1ccc2c(c1)C(O)OC2=O (configuration not stated) [3-hydroxy-5-methoxy-2-benzofuran-1(3H)-one]
Reply text: 137

Inquiry: Check the records and state melting point for COc1ccc(C(=O)O)cc1OC
Reply text: 181

Inquiry: Supply reported melting point belonging to this molecule: N#Cc1ccc2c(c1)N(CCCN1CCC(O)CC1)c1ccccc1S2
Reply text: 82

Inquiry: Entry c1ccc(/N=N/c2ccccc2)cc1 [(E)-Diphenyldiazene] needs its melting point filled in; supply it.
Reply text: 68.5

Inquiry: Assign melting point to the following record: FC(F)(F)c1ccc(Cl)cc1 [4-chlorobenzotrifluoride]
Reply text: -36

Inquiry: Tell me its melting point given CC(C)(C)c1cc(N)n[nH]1 as the entry.
Reply text: 77

Inquiry: Return melting point (reported value) for this molecule: Oc1ccc(Cl)c2cccnc12 [5-chloro-8-hydroxyquinoline]
Reply text: 123

Inquiry: Note down melting point recorded for C=CCCCCC(=O)O
Reply text: -6

Inquiry: Fill in reported melting point for this entry: CCOC(N)=O [ethyl carbamate]
Reply text: 49

Inquiry: Tell me measured melting point for OB(O)c1ccccc1Br please.
Reply text: 109

Inquiry: Recall and state the measured melting point for O=C1c2ccccc2C(=O)c2c1ccc(O)c2O [1,2-Dihydroxy-9,10-anthraquinone] .
Reply text: 281

Inquiry: Read the entry OB(O)c1cccc(C(F)(F)F)c1 and write its reported melting point.
Reply text: 164

Inquiry: Give melting point for the following molecule: Cc1cc(Br)ccc1N
Reply text: 58

Inquiry: Identify the reported melting point for the following entry. CC1=CC(=O)CC1
Reply text: 2

Inquiry: Give a short answer stating reported melting point for NC(=O)c1sccc1N [3-aminothiophene-2-carboxamide] .
Reply text: 121

Inquiry: Note melting point for the molecule shown: COC(C)=O [Methyl acetate]
Reply text: -98

Inquiry: Please supply the value of reported melting point for the item CC(=O)Cl [acetyl_chloride]
Reply text: -112

Inquiry: Output melting point of CC1=CCC2CC1C2(C)C (configuration not stated)
Reply text: -62

Inquiry: Answer with reported melting point of c1ccc(OP(Oc2ccccc2)Oc2ccccc2)cc1
Reply text: 23

Inquiry: Name the recorded melting point of the molecule listed here: O=C(O)c1cccc(I)c1
Reply text: 187

Inquiry: Answer with the recorded melting point for the molecule listed here: O=C(O)CC[N+](=O)[O-]
Reply text: 64

Inquiry: Note melting point for the molecule shown: COC(=O)/C=C/C(=O)OC [dimethyl_fumarate]
Reply text: 104

Inquiry: Identify melting point associated with the molecule c1ccc(C(c2ccccc2)c2ccccc2)cc1 [1,1',1''-Methanetriyltribenzene]
Reply text: 94

Inquiry: Indicate its recorded melting point; the molecule in question is COc1cc(C(=O)NCCCCCC(=O)O)cc(OC)c1OC
Reply text: 121

Inquiry: Report measured melting point; entry is C=CCC1(CC(C)C)C(=O)NC(=O)NC1=O [Butalbital]
Reply text: 138

Inquiry: State, in one line, measured melting point of Cc1ccccc1NC=O [2-methylformanilide]
Reply text: 59

Inquiry: Tell me measured melting point for Cc1cc(Cl)cc([N+](=O)[O-])c1N please.
Reply text: 122

Inquiry: Look up and state reported melting point for C(#Cc1ccc2ccccc2c1)c1ccccc1
Reply text: 117

Inquiry: Quick one: give measured melting point for CCOc1ccc(C=O)cc1
Reply text: 14

---

Exam item: assign Condition met to entries whose melting point is below 60 °C and Condition not met to entries at or above 60 °C. Note that a value of exactly 60 °C receives Condition not met.

Inquiry: Field: below-cutoff. Rule: recorded melting point strictly less than 60 °C. Subject: Nc1ccccc1N [o-phenylenediamine]
Reply text: Condition not met

Inquiry: Regarding Nc1ncc(Br)cc1Br [2-amino-3,5-dibromopyridine] , kindly confirm whether its melting point is beneath 60 °C.
Reply text: Condition not met

Inquiry: Report whether reported melting point is lower than 60 °C (strictly) for Clc1cc(Cl)c(-c2ccccc2)cc1Cl [2,4,5-Trichlorobiphenyl]
Reply text: Condition not met

Inquiry: Record COc1ccc(C(C)=O)cc1OC [3,4-dimethoxyacetophenone] : is its melting point strictly below 60 °C?
Reply text: Condition met

Inquiry: is_below(melting point, 60 °C) for CCCCCCCCCCCCCCCCCCCCCCCCCCCCC [Nonacosane] ?
Reply text: Condition not met

Inquiry: Report whether reported melting point is lower than 60 °C (strictly) for O=C(O)c1ccc(Br)cc1 [4-bromobenzoic acid]
Reply text: Condition not met

Inquiry: Decide: melting point of O=C2c1ccccc1S(=O)(=O)N(C)C/2=C(O)Nc3ccccn3 [Piroxicam] strictly below 60 °C?
Reply text: Condition not met

Inquiry: Say whether its melting point is strictly beneath 60 °C. Entry: ClC(Cl)(Cl)c1ccccc1 [benzotrichloride]
Reply text: Condition met

Inquiry: Dear reviewer, please state whether CCCOC(C)=O [N-propyl acetate] has melting point strictly beneath 60 °C.
Reply text: Condition met

Inquiry: Item CC(=O)c1ccco1 [1-(2-Furyl)ethanone] : melting point beneath 60 °C, strictly?
Reply text: Condition met

Inquiry: I'd appreciate it if you could check whether O=C=Nc1ccc([N+](=O)[O-])cc1 [4-nitrophenyl isocyanate] has melting point smaller than 60 °C.
Reply text: Condition met
